Recorded values, source ChEMBL document CHEMBL3045285.

Provide the reported mortality at 1 µg/mL of each item.
Tested on: Plutella xylostella
test-name: Insecticidal activity against second-instar larval stage of Plutella xylostella (diamondback moth) in cabbage leaves assessed as mortality at 1 mg/l at 25 +/-1 degC treated for 3 secs before larva infestation measured after 2 days by leaf-dip method
Format: functional
run-conditions: 48 h

Examples from the recorded data:
CNC(=O)c1cc(Cl)cc(C)c1NC(=O)c1cc(COC(C)=O)nn1-c1ncccc1Cl | 0%
CNC(=O)c1cc(Cl)cc(C)c1NC(=O)c1cc(Br)nn1-c1ncccc1Cl | 100%
CNC(=O)c1cc(C(=O)Nc2c(C)cc(Cl)cc2C(=O)NC(C)(C)C)n(-c2ncccc2Cl)n1 | 100%
CC(=O)OCc1cc(C(=O)Nc2c(C)cc(Cl)cc2C(=O)NC(C)(C)C)n(-c2ncccc2Cl)n1 | 70%
CC(=O)OCc1cc(C(=O)Nc2c(C)cc(Cl)cc2C(=O)NC(C)C)n(-c2ncccc2Cl)n1 | 0%

Below is a list of compounds. For each, state its recorded mortality at 1 µg/mL.
1. CNC(=O)c1cc(Cl)cc(C)c1NC(=O)c1cc(CN=[N+]=[N-])nn1-c1ncccc1Cl
2. CC(=O)OCc1cc(C(=O)Nc2c(C)cc(Cl)cc2C(=O)NC2CC2)n(-c2ncccc2Cl)n1
3. CNC(=O)c1cc(Cl)cc(C)c1NC(=O)c1cc(CNC(=O)C(F)(F)F)nn1-c1ncccc1Cl

1. 100%
2. 60%
3. 80%
